Target: AT1R (Homo sapiens)
Sequence (P30556 whole entry): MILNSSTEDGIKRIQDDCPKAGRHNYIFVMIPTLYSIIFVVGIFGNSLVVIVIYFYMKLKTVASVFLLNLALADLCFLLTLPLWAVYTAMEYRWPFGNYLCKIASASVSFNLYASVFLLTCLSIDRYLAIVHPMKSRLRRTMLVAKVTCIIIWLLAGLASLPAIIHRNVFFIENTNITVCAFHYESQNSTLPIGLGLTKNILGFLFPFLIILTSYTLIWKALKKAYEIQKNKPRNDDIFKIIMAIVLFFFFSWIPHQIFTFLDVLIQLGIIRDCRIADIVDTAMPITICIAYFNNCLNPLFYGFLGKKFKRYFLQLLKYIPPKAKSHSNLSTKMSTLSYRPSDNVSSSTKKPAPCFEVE
Assay: β-arrestin2 recruitment BRET (β-arrestin2-RLucII/rGFP-CAAX) in HEK293 cells expressing AT1R
Assay type: cell-based
Parameters: expressed in transfected cells; host or cells: HEK293 cells, transient PEI transfection
Conditions: HEK293 cells transiently expressing AT1R; β-arrestin2-RLucII/rGFP-CAAX BRET; read 10 min after ligand; mean ± SEM of at least three to five independent experiments; SEM; read-out: EC50 βarr2
Method: We utilized a clonal cell line HEK293, referred to hereafter as HEK293 cells, which has been previously described.[7],[8] […] On the day of the experiment, each well was washed with 80 µL of Tyrode’s buffer (140 mM NaCl, 2.7 mM KCl, 1 mM CaCl2, 12 mM NaHCO3, 5.6 mM D-glucose, 0.5 mM MgCl2, 0.37 mM NaH2PO4, 25 mM Hepes (pH 7.4)). […] Cells were then stimulated with increasing doses of the indicated ligand, and BRET signals were measured using a Tristar2 (Berthold) microplate reader 10 min later. […]
pEC50: −log10 of the molar value. Peptide text beside a SMILES is read from it.
Quick rule: pEC50 of at least 9 means 1, below that means -1.

QUERY: pEC50 >= 9 for `CC[C@H](C)[C@H](NC(=O)[C@H](Cc1ccc(O)cc1)NC(=O)[C@@H](NC(=O)[C@H](CCCNC(=N)N)NC(=O)[C@@H](N)CC(=O)O)C(C)C)C(=O)N[C@@H](Cc1c[nH]cn1)C(=O)N1CCC[C@H]1C(=O)N[C@@H](CCCN)C(=O)O` ?
RESULT: -1

QUERY: Could you verify whether the entry CC[C@H](C)[C@H](NC(=O)[C@H](Cc1ccc(O)cc1)NC(=O)[C@@H](NC(=O)[C@H](CCCN=C(N)N)NC(=O)[C@@H](N)CC(=O)O)C(C)C)C(=O)N[C@@H](Cc1c[nH]cn1)C(=O)N1CCC[C@H]1C(=O)N[C@@H](Cc1c[nH]c2ccccc12)C(=O)O [compound 21] (H-DRVYIHPW-OH) shows pEC50 of no less than 9?
RESULT: -1

QUERY: Evaluate `CC[C@H](C)[C@H](NC(=O)[C@H](Cc1ccc(O)cc1)NC(=O)[C@@H](NC(=O)[C@H](CCCNC(=N)N)NC(=O)[C@@H](N)CC(=O)O)C(C)C)C(=O)N[C@@H](Cc1c[nH]cn1)C(=O)N1CCC[C@H]1C(=O)N[C@H](C(=O)O)C(C)(C)C` : pEC50 at minimum 9?
RESULT: -1

QUERY: Could you verify whether the entry `CC[C@H](C)[C@H](NC(=O)[C@H](Cc1ccc(O)cc1)NC(=O)[C@@H](NC(=O)[C@H](CCCNC(=N)N)NC(=O)[C@@H](N)CC(=O)O)C(C)C)C(=O)N[C@@H](Cc1c[nH]cn1)C(=O)N1CCC[C@H]1C(=O)N[C@@H](Cc1ccc(OC)cc1)C(=O)O` shows pEC50 of no less than 9?
RESULT: 1

QUERY: Evaluate `CC[C@H](C)[C@H](NC(=O)[C@H](Cc1ccc(O)cc1)NC(=O)[C@@H](NC(=O)[C@H](CCCNC(=N)N)NC(=O)[C@@H](N)CC(=O)O)C(C)C)C(=O)N[C@@H](Cc1c[nH]cn1)C(=O)N1CCC[C@H]1C(=O)N[C@H](C(=O)O)C(c1ccccc1)c1ccccc1` : pEC50 at minimum 9?
RESULT: -1

Origin of values: paper doi:10.1101/2025.08.13.670122v1
